This collection of values is drawn from patent US20210032253A1.

System: adenosine A3 receptor (A3R) (Homo sapiens)
Construct: expressed in transfected cells; host or cells: CHO-K1
Sequence (P0DMS8 1-318): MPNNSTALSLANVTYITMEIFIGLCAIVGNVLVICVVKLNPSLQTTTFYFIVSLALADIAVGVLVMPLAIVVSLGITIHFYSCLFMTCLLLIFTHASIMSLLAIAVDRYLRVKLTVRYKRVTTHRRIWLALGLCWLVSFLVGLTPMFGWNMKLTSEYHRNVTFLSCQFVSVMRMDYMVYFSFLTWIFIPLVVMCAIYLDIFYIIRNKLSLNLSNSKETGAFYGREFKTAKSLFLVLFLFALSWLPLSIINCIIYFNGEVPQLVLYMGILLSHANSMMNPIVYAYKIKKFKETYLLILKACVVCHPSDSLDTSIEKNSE
Assay procedure: Inhibition of adenosine A3 receptor cAMP signaling pathway in CHO-K1/A3R cells (HTRF cAMP dynamic 2 kit)
Assay type: cell-based
Protocol conditions: Table 3; CHO-K1/A3R cells, cAMP, 10 μM forskolin, 5 nM 2Cl-IB-MECA
IC50 for assorted compounds
Give the value, in units of nM, as a plain number.

| Compound | Scale unit | IC50 |
| --- | --- | --- |
| Cc1ccc(-c2nc(N)nc3c(Nc4cccc(CN5CCOCC5)n4)cnn23)o1 [Example 27] | nM | 977 |
| Cc1ccc(-c2nc(N)nc3c(Cc4cccc(CN5CCN(C)CC5)n4)cnn23)o1 [Example 8] | nM | 6490 |
| Cc1ccc(-c2nc(N)nc3c(Nc4cccc(CN5CC6(COC6)C5)n4)cnn23)o1 [Example 32] | nM | 5610 |
| Cc1ccc(-c2nc(N)nc3c(Cc4cccc(CO[C@H]5CCOC5)c4)cnn23)o1 [Example 24] | nM | 2040 |
| COCc1cccc(Cc2cnn3c(-c4ccc(C)o4)nc(N)nc23)n1 [Example 13] | nM | 5500 |
| Cc1ccc(-c2nc(N)nc3c(Cc4cccc(CN5CC6(COC6)C5)n4)cnn23)o1 [Example 7] | nM | 7370 |
| Cc1ccc(-c2nc(N)nc3c(Oc4cccc(CO[C@H]5CCOC5)n4)cnn23)o1 [Example 19] | nM | 4790 |
| CCCc1cccc(Cc2cnn3c(-c4ccc(C)o4)nc(N)nc23)n1 [Example 20] | nM | 280 |

// returns reported IC50 for input Cc1ccc(-c2nc(N)nc3c(Cc4cccc(COC5CCCC5)n4)cnn23)o1 [Example 22]
1050

Then what about the compound Cc1ccc(-c2nc(N)nc3c(Nc4cccc(CO[C@@H]5CCOC5)n4)cnn23)o1 [Example 21] ?
1700

Then what about the compound Cc1ccc(-c2nc(N)nc3c(Cc4cccc(CO[C@@H]5CCOC5)n4)cnn23)o1 [Example 6] ?
4810

Then what about the compound Cc1ccc(-c2nc(N)nc3c(Nc4cccc(CN5CC6COCC6C5)n4)cnn23)o1 (stereo not drawn) [Example 30] ?
7600

Then what about the compound Nc1nc(-c2ccco2)n2ncc(Cc3ccccc3F)c2n1 [Example 10] ?
358

Then what about the compound Cc1ccc(-c2nc(N)nc3c(Nc4cccc(CO[C@H]5CCOC5)n4)cnn23)o1 [Example 18] ?
2200

Then what about the compound Cc1ccc(-c2nc(N)nc3c(Nc4cccc(CN5CCN(C)CC5)n4)cnn23)o1 [Example 29] ?
2180

Then what about the compound Cc1ccc(-c2nc(N)nc3c(Cc4cccc(CN5CCOCC5)n4)cnn23)o1 [Example 5] ?
2280

Then what about the compound Cc1ccc(-c2nc(N)nc3c(Nc4cccc(CO[C@H]5CCOC5)c4)cnn23)o1 [Example 25] ?
8150
